# procedure.summary: qHTS of pediatric cancer cell lines to identify multiple opportunities for drug repurposing: Primary screen for Saos-2 cells (AID 1347097); note: nearly all actives have a fitted effect of over 40% in size
# test.settings: Saos-2 viability, CellTiter-Glo ATP luminescence, 48 h; series mostly up to 46 µM
Inconclusive results are not listed. Active and inactive are the calls of the source. Calls come from the whole dose curve; as a rule, active = well fitted cell-killing curve with a large enough effect; inconclusive = small, poorly fitted or top-dose-only effect; inactive = no such curve, though single readings can be large or run the other way.
Pick from active, inactive when you respond.

As a guide, the following entries are already answered.
COc1ccccc1OCCNCC(O)COc1cccc2[nH]c3ccccc3c12 (stereo unspecified): inactive
O=C(c1ccc(OCCN2CCCCC2)cc1)c1c(-c2ccc(O)cc2)sc2cc(O)ccc12: active
CCCNCC(O)COc1ccccc1C(=O)CCc1ccccc1 (stereo unspecified): inactive

Dear all, I need the recorded test outcome for Cc1ccc(C(=O)Nc2ccc(S(=O)(=O)O)c3cc(S(=O)(=O)O)cc(S(=O)(=O)O)c23)cc1NC(=O)c1cccc(NC(=O)Nc2cccc(C(=O)Nc3cc(C(=O)Nc4ccc(S(=O)(=O)O)c5cc(S(=O)(=O)O)cc(S(=O)(=O)O)c45)ccc3C)c2)c1 , thank you.
inactive

Assay result, entry CCN1CCCC1CNC(=O)c1cc(S(=O)(=O)CC)c(N)cc1OC (stereo unspecified) — outcome?
inactive

Write down the call the test reported for this compound. Item: O=C(C1CCCCC1)N1CC(=O)N2CCc3ccccc3C2C1 (stereo unspecified)
inactive
